Origin of measurements: PubChem BioAssay

Assay: growth suppression of PTEN-deleted HCT116, pilot screen, cell-based, HCT116 clonal line, CellTiter-Glo (AID 824);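 note: 0% = 20 µM Hyamine control and 100% = vehicle cell control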
Settings: 60 h, at 10 µM, hits give low values
Records with an inconclusive call do not appear.
Label yes when viability is strictly below 90%; at or above that, label no.

Ask | Does the reported viability of CCc1c(C)sc(NC(=O)c2cccs2)c1C(=O)OC(C)C stay below 90%?
Reply | yes

Ask | // repeat for CCCN1Cc2cccc(C(=O)Nc3ccc4c(c3)OCCO4)c2C1=O and report
Reply | no

Ask | For COc1ccccc1NC(=O)N1CCN(c2ccccn2)CC1 then?
Reply | no

Ask | Also check CC1CCN(S(=O)(=O)c2ccc3c(c2)oc(=O)n3CC(=O)NCc2ccc3c(c2)OCO3)CC1
Reply | yes

Ask | Please answer likewise for O=C(Cn1cc2c(n1)CCCC2)NCCCN1CCN(Cc2ccccc2)CC1
Reply | no

Ask | Next record, please: COc1ccc(C)cc1NC(=O)CN(c1ccc(F)cc1)S(C)(=O)=O
Reply | no

Ask | Next compound: O/N=C1/CCCSc2ccccc21
Reply | no

====

Assay: growth suppression of beta-catenin knockout HCT116, pilot screen, human colon tumor cells (AID 823);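 note: 0% = wells killed by 20 µM Hyamine and 100% = untreated DMSO cell wells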
Conditions: CellTiter-Glo, 60 h, at 10 µM, hits give low values
Inconclusive results are not listed.
Documented viability across a set of molecules
State the answer as a number, implicitly in %.

CCCCCCC1C(C#N)=C(N)OC2=C1C(=O)CCC2 (stereo unspecified) = 101

Ask | Please report the recorded viability for CCC(CO)N=CC1=C(O)CC(C)(C)CC1=O (stereo unspecified) .
Reply | 102

Ask | Please answer likewise for O=C(C1CC1)N1CCc2cc(Br)cc(S(=O)(=O)NC3CCCCC3)c21
Reply | 88.5

Ask | Next entry: Cc1cc(C)nc(SCC(=O)c2ccc(O)cc2O)n1
Reply | 99.7

Ask | Would you mind doing NC(=O)CSc1ncc(-c2ccccc2)[nH]1 as well?
Reply | 101

Ask | Next up: Cn1c(Cn2c(=O)sc3ccccc32)nnc1SCC(=O)Nc1ccc2c(c1)OCO2
Reply | 105

====

Experiment: viability gain of MRP-1-high H69AR cells under doxorubicin, pilot screen, MRP-1 activator project, CellTiter-Glo, duplicate (AID 807);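 note: compound pretreatment 18-22 h then 72 h combined with doxorubicin; 0% = doxorubicin alone and 100% = vehicle without doxorubicin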
Conditions: H69AR viability with doxorubicin, CellTiter-Glo luminescence; at 10 µM; hits give high values
RECORDED_METRIC: viability increase (%)
Note: unit % is implicit; provide only the numeric part.

Known results for compounds:
CCOC(=O)c1cc(-c2ccc(C)cc2)n(CC(=O)NCc2ccco2)c1C = -5.81
COc1ccc(NC(=O)Nc2nnc(N3CCC(C)CC3)s2)cc1OC = -4.49
CCOc1ccc(N2CC(C(=O)NCCC3=CCCCC3)CC2=O)cc1 (stereo not drawn) = 0.15
CCOc1cc(-c2cc(N)n[nH]2)cc(OCC)c1OCC = -2.48
Brc1ccc(OCCOCCN2CCOCC2)cc1 = 2.95

Ask | Please report the recorded viability increase for Cc1oc(C(C)(C)C)cc1C(=O)Nc1ccc(C(=O)O)cc1 .
Reply | 2.02

Ask | What about this compound? COc1ccc2nc(NC(=O)C3CCCN3S(=O)(=O)c3ccc(C)cc3)sc2c1 (stereo not drawn)
Reply | -1.48

Ask | Now the compound Brc1ccc(-c2nnc3sc(CNCc4ccc5c(c4)OCO5)cn23)cc1
Reply | -0.67

Ask | // repeat for CCC(C)NC(=O)CCS(=O)(=O)c1ccc2c(c1)n(C)c(=O)c(=O)n2C (stereo not drawn) and report
Reply | -0.01
